- measured target: Cannabinoid receptor 2 (Homo sapiens, UniProt P34972)
- Sequence (P34972 whole entry): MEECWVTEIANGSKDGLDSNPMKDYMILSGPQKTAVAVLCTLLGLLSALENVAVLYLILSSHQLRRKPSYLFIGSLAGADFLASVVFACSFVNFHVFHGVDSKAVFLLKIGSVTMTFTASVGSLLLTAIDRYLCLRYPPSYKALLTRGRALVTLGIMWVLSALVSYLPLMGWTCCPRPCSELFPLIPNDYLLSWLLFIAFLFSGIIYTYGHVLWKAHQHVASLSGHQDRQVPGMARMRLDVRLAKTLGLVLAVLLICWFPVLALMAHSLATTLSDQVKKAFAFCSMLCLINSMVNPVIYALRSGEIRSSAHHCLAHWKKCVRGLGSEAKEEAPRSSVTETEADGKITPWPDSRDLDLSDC
Hi! Just check whether Ki is below 30 nM. Below gives Y, equal or above gives N.

Illustrative cases are given below, each with its answer.
Request: Check if Ki falls below 30 nM for CC(C)(NC(=O)c1cc2c(n(CC3CCCCC3)c1=O)CCCCCC2)C(=O)O .
Response: N

Request: Decide: Ki of O=C(N[C@@H](Cc1ccccc1)C(=O)O)c1cc2c(n(CC3CCCCC3)c1=O)CCCCCC2 strictly below 30 nM?
Response: N

Request: Please check: Ki for O=C(O)Cc1cnc(NC(=O)c2cc3c(n(CC4CCCCC4)c2=O)CCCCCC3)s1 , strictly under 30 nM or not?
Response: Y

Request: Decide: Ki of O=C(O)c1ccccc1NC(=O)c1cc2c(n(CC3CCCCC3)c1=O)CCCCCC2 strictly below 30 nM?
Response: N

Further cases:
Request: Consider the molecule O=C(N[C@H](C(=O)O)C1CCCCC1)c1cc2c(n(CC3CCCCC3)c1=O)CCCCCC2 . Is its Ki strictly less than 30 nM?
Response: N

// provenance: ChEMBL document CHEMBL2021918
